tested-system: Delta-type opioid receptor (Mus musculus)
Sequence (P32300 whole entry): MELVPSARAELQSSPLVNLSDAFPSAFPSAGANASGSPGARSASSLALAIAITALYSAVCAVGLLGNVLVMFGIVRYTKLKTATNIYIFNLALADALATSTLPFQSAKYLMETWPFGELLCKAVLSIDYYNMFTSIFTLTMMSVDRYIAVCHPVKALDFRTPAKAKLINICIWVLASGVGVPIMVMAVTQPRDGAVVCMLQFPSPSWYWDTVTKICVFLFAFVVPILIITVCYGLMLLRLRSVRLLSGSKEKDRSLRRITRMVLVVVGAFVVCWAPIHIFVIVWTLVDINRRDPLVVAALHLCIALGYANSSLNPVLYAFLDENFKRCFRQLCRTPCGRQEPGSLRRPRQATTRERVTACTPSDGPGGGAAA
assay-text: Agonist activity at delta opioid receptor assessed as inhibition of electrically stimulated ICR mouse vas deferens contraction
readout-name: IC50
Your answer should be a number followed by the unit of measure.

CCCC[C@H](NC(=O)[C@H](Cc1c[nH]c2ccccc12)NC(=O)CNC(=O)[C@@H](C)NC(=O)[C@@H](N)Cc1ccc(O)cc1)C(=O)N[C@@H](CC(=O)O)C(=O)N[C@@H](Cc1ccccc1)C(N)=O : 45 nM
CCCC[C@H](NC(=O)[C@H](Cc1c[nH]c2ccccc12)NC(=O)CNC(=O)[C@@H](Cc1ccccc1)NC(=O)[C@@H](N)Cc1ccc(O)cc1)C(=O)N[C@@H](CC(=O)O)C(=O)N[C@@H](Cc1ccccc1)C(N)=O : 12 nM
CCCC[C@@H](C(=O)N[C@@H](CC(=O)O)C(=O)N[C@@H](Cc1ccccc1)C(N)=O)N(C)C(=O)[C@@H](Cc1c[nH]c2ccccc12)NC(=O)CNC(=O)[C@@H](C)NC(=O)[C@@H](N)Cc1ccc(O)cc1 : 63 nM

Per the reported Delta-type opioid receptor (Mus musculus) data, CCCC[C@@H](C(=O)N[C@@H](CC(=O)O)C(=O)N[C@@H](Cc1ccccc1)C(N)=O)N(C)C(=O)[C@H](Cc1c[nH]c2ccccc12)NC(=O)CNC(=O)[C@@H](C)NC(=O)[C@@H](N)Cc1ccc(O)cc1 has IC50 of 66 nM
